Values from paper PMC8456852

Test: clinical
Conditions: female, human, in vivo, po
Attribute: half-life
readout-name: half-life (h)

>  <smiles-repr>
C[C@@H]1CCO[C@H]2Cn3cc(C(=O)NCc4ccc(F)cc4F)c(=O)c(O)c3C(=O)N12

>  <readout-value>
13.7

$$$$
>  <smiles-repr>
Nc1nc(NC2CC2)c2ncn([C@H]3C=C[C@@H](CO)C3)c2n1

>  <readout-value>
2.87

$$$$

====

In this section, each of the molecules is paired with its reported Tmax.
Test: clinical
Conditions: both, human, in vivo, po

>  <smiles-repr>
C[C@@H]1CCO[C@H]2Cn3cc(C(=O)NCc4ccc(F)cc4F)c(=O)c(O)c3C(=O)N12

>  <Tmax>
3.5 h

$$$$
>  <smiles-repr>
Nc1ccn([C@@H]2CS[C@H](CO)O2)c(=O)n1

>  <Tmax>
2.98 h

$$$$
>  <smiles-repr>
Nc1nc(NC2CC2)c2ncn([C@H]3C=C[C@@H](CO)C3)c2n1

>  <Tmax>
1.01 h

$$$$
